# TARGET_UNDER_TEST: GDP-bound KRAS protein (aa 1-169), containing both G12C and C118A amino acid substitutions (Homo sapiens (Human), UniProt P01116, C118A/G12C)
# Sequence (P01116 other isoform, or with tags, fused parts or gaps G12C/C118A): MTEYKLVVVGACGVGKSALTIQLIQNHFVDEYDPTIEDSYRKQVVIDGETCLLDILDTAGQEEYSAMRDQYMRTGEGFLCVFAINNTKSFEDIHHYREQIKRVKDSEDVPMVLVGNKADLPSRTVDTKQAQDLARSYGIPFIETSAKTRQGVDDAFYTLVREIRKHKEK
# ASSAY_NAME: Coupled Nucleotide Exchange Assay
# Assay type: biochemical
# ASSAY_SETUP: read-out: Coupled Exchange IC50 (2 h); 2 h compound pre-incubation
Recorded IC50 determines the label; the label ranges are bucket 1 (below 1 µM), bucket 2 (1 µM to below 4 µM), bucket 3 (4 µM or more)

smi=C=CC(=O)N1CC(NC(=O)Cn2ccc3cc([N+](=O)[O-])ccc32)C1 category_label="bucket 3"
smi=C=CC(=O)N1CC(NC(=O)Cn2c3c(c4cc([N+](=O)[O-])ccc42)CCCC3)C1 category_label="bucket 3"
smi=C=CC(=O)N1CC(NC(=O)Cn2ccc3cc(-c4ccccc4)ccc32)C1 category_label="bucket 3"
smi=C=CC(=O)N1CC(NC(=O)Cn2cc(C(=O)NCCc3ccc(Cl)cc3Cl)c3cc(Cl)cc(Cl)c32)C1 category_label="bucket 1"
smi=C=CC(=O)N1CC(NC(=O)Cn2cc(-c3cocn3)c3ccc(-c4ccccc4Cl)cc32)C1 category_label="bucket 3"
smi=C=CC(=O)N1CC(NC(=O)Cn2cc(C(=O)NCCc3nc(C)c(C)s3)c3cc(Br)ccc32)C1 category_label="bucket 2"
smi=C=CC(=O)N1CC(NC(=O)Cn2cc(CN3CCc4ccccc4C3)c3cc(Br)ccc32)C1 category_label="bucket 3"
smi=C=CC(=O)N1CC(N(C)C(=O)Cn2c(C)c(C(=O)N3CCN(c4ccc(C#N)cn4)C[C@H]3C)c3cc(Br)ccc32)C1 category_label="bucket 1"

Input: In plain terms, what class is C=CC(=O)N1CC(NC(=O)Cn2c3c(c4cc(Br)ccc42)CCCC3=O)C1 ?
Output: bucket 3

Input: Entry C=CC(=O)N1CC(NC(=O)CN2Cc3c(n(C(C)=O)c4ccc(Br)cc34)C2)C1 please
Output: bucket 3

Input: Entry C=CC(=O)N1CC(NC(=O)Cn2c3ccc(Br)cc3c3c(Cl)ccnc32)C1 please
Output: bucket 2

Input: Entry C=CC(=O)N1CC(NC(=O)Cn2cc(C(=O)N3CCc4c(cccc4OC)C3)c3cc(Cl)cc(Cl)c32)C1 please
Output: bucket 1

Input: Entry C=CC(=O)N1CC(NC(=O)Cn2cc(Br)c3cc([N+](=O)[O-])ccc32)C1 please
Output: bucket 3

Input: Entry C=CC(=O)N1CC(NC(=O)Cn2c(C)c(C(=O)N3CCc4c(cccc4OC)C3)c3cc([N+](=O)[O-])ccc32)C1 please
Output: bucket 2

Input: Entry C=CC(=O)N1CC(NC(=O)Cn2c(C)c(-c3cnccc3C3CC3)c3cc(Cl)ccc32)C1 please
Output: bucket 1

Input: Entry C=CC(=O)N1CC(NC(=O)Cn2ccc3ccc(Cl)cc32)C1 please
Output: bucket 3
